The measurements presented in this section are drawn from PubChem BioAssay (EPA / NIEHS).

Read-out: Interleukin 6 (IL6), IL6 (gene 3569)
Assay: BSK_BT_xIL6: BioMAP Diversity Plus: BT Assay for Interleukin 6 (IL6) Biomarker Activity (AID 2284228)
Conditions: primary human B cells with PBMC
The source made the active and inactive calls. The calls were made as follows: active = hit-call score of the fitted dose curve at least 0.9, where 1 is the maximum; inactive = score below 0.9.
Allowed answers: class 1 = active, class 0 = inactive

>  <COMPOUND>
COC(=O)C(F)(F)C(F)(F)OC(F)(C(F)(F)F)C(F)(F)OC(F)=C(F)F (configuration not stated)

>  <CLASS_NAME>
class 0

$$$$

Test call for this compound, please: `N#Cc1c(-c2ccc(Cl)cc2)[nH]c(C(F)(F)F)c1Br`
class 1

Can you check `C=CC(=O)OCC(CC)(COC(=O)C=C)COC(=O)C=C` next?
class 1

Can you check CC(Cl)CN(C)C (configuration not stated) next?
class 0

Can you check CC(O)C(F)(F)C(F)(F)F (configuration not stated) next?
class 0

Can you check `CCCCOCCOP(=O)(OCCOCCCC)OCCOCCCC` next?
class 0

Can you check `Nc1ccc([N+](=O)[O-])cc1Cl` next?
class 0

Can you check `CCOP(=S)(OCC)SCS(=O)(=O)CC` next?
class 0

Can you check `Cc1c([N+](=O)[O-])cc2c(c1[N+](=O)[O-])C(C)(C)CC2(C)C` next?
class 0

Can you check `CC(C)Nc1ccc(Nc2ccccc2)cc1` next?
class 1

Can you check `N#Cc1cc([N+](=O)[O-])ccc1N` next?
class 0

Can you check CCCCC(CC)COC(=O)c1c(Br)c(Br)c(Br)c(Br)c1C(=O)OCC(CC)CCCC (configuration not stated) next?
class 0

* * *

Assay: CCTE_Shafer_MEA_dev_LDH: CCTE's Lactate Dehydrogenase Assay for Cytotoxicity in the Neural Network Formation Assay, Shafer Lab (AID 2284068);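 also: exposure for twelve days from plating with re-dosing on DIV 5 and 9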
Protocol: CCTE_Shafer_MEA_dev assay is conducted using Axion Biosystems 48 well microelectrode array (MEA) plates and Maestro recording system. Each well of the MEA plate contains a grid of 16 microelectrodes embedded in the culture surface. Electrically active cells, such as neurons, can be cultured over the electrodes, and electrical activity in these cells can be recorded extracellularly. […]
Results filed as inconclusive are left out. Calls of active or inactive are those of the source. The calls were made as follows: active = hit-call score of the fitted dose curve at least 0.9, where 1 is the maximum; inconclusive = response in the unintended direction; inactive = score below 0.9.
Allowed answers: yes for active, no for inactive

>  <COMPOUND>
O=P1(N(CCCl)CCCl)NCCCO1 (centres undefined)

>  <CLASS_NAME>
yes

$$$$
>  <COMPOUND>
O=C(O)C1C(C(=O)O)C2(Cl)C(Cl)=C(Cl)C1(Cl)C2(Cl)Cl (centres undefined)

>  <CLASS_NAME>
no

$$$$
>  <COMPOUND>
CCCCC(CC)COP(=O)(Oc1ccccc1)Oc1ccccc1 (centres undefined)

>  <CLASS_NAME>
yes

$$$$
>  <COMPOUND>
CCOc1ccc(C(C)(C)COCc2cccc(Oc3ccccc3)c2)cc1

>  <CLASS_NAME>
yes

$$$$
>  <COMPOUND>
O=S(=O)(c1ccc(O)cc1)c1ccc(O)cc1

>  <CLASS_NAME>
no

$$$$

Test call for this compound, please: `C=CC(=O)OCC(F)(F)C(F)F`
yes

Can you check O=C(O)C(F)(OC(F)(F)C(F)(F)C(F)(F)F)C(F)(F)F (centres undefined) next?
no

Can you check `O=C(O)C(F)(F)C(F)(F)C(=O)O` next?
no

Can you check `CO/N=C(/C(=O)OC)c1ccccc1COc1ccccc1C` next?
yes
